Entries annotated with measured abundance fitness
B1: Dystrobrevin alpha, residues 235 to 294; numbered along this chain, Q9Y4J8 (parent)
chain: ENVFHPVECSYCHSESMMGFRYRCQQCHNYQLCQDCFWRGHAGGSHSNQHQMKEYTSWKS

# Variants of: B1
# assayInfo: abundance fitness (aPCA) (normalised: wild type 0, dead -1); higher = more abundant; growth selection in yeast, the domain comes from the species named
# setupConditions: Homo sapiens
// print number alone

# count of solved cases: 10
| variantDesignation | abundance fitness |
| --- | --- |
| Q51L | -0.153 |
| S47L | -0.333 |
| N29H | -0.075 |
| W58Y | 0.142 |
| M18W | -0.266 |
| C33N | -0.592 |
| K53E | -0.029 |
| M18G | 0.064 |
| Y22P | -0.904 |
| W58G | 0.192 |

Could you now consider this next variant?
[in] Query: abundance fitness; subject: Y30P
[out] -0.638
